- System: MLK2;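 also: KINOMEscan kinase panel screen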
- particulars: concentration: 1 μM,replicates: in singlicate; n = 1
Would you mind labelling by %Inh? At or over 30% is Met, under is Not met.

| compound | assigned_label |
| --- | --- |
| Cl.Cl.NC[C@H](CC1CCCCC1)NC(=O)c1ccc(-c2ccnc3[nH]ccc23)s1 | Not met |
| NC(=O)c1ccc(-c2cc3ncnc(SCC(=O)O)c3s2)cc1 | Not met |
| CC(=O)Nc1nc2cnc(Nc3cc(NC(=O)c4cccc(CC(C)(C)C#N)c4)ccc3C)nc2s1 | Not met |
| COc1cc(Nc2nccc(N3CCC(NC(=O)c4cccc(C#N)c4)C3)n2)cc(OC)c1OC (centres unmarked) | Met |
| C[C@@H]1CNc2c(sc3ccc4nc(-c5ccncc5)ccc4c23)C(=O)N1 | Not met |
| C[C@@H]1CCN(C(=O)N2CCCC2)C[C@@H]1N(C)c1ncnc2[nH]ccc12 | Met |
| CC(=O)c1c(-c2ccncc2)[nH]c(-c2ccncc2)c1C | Not met |
| CS(=O)(=O)Nc1ccc(-c2ccnc3[nH]ccc23)cc1 | Met |
| Cl.Nc1n[nH]c2cc(-c3ccccn3)ccc12 | Not met |
| Cn1ccc2ncnc(Oc3ccc(NC(=O)Nc4cnn(C(C)(C)C)c4)c(Cl)c3)c21 | Not met |
| Cn1ccc2ncnc(Oc3ccc(NC(=O)Nc4ccnc(C(F)(F)F)c4)c(Cl)c3)c21 | Not met |
| O=C(Nc1ccc(Oc2ccc3nc(NC(=O)C4CC4)cn3n2)c(F)c1)c1cccn(-c2ccccc2)c1=O | Met |
| Cc1ccn2nc(-c3ccc(F)cc3)c(-c3ccncc3)c2c1.Cl | Not met |
| CCOC(=O)N1CCC(n2cnc(-c3ccc(F)cc3)c2-c2ccnc(N)n2)CC1 | Not met |
